Tested on: NOMO1
Assay: cell viability relative to DMSO control; higher = less cytotoxic
Conditions: RPMI 5 mM glucose + 10% dialyzed FBS; 48 h; 0.0211 µM
Mark Satisfied only for cell viability values smaller than 90%; exact matches and larger values are Not satisfied.

As a guide, the following entries are already answered.
{"Compound": "CC1(C)CC\\C2=C(/O1)C3=C(C=CC=C3)C(=O)C2=O", "Category": "Not satisfied"}
{"Compound": "C=CC(=O)Nc1cc2c(Nc3ccc(F)c(Cl)c3)ncnc2cc1C#CC(C)(C)N1CCN(C)CC1", "Category": "Not satisfied"}
{"Compound": "CCC(CCCC)COC(=O)C(\\C#N)=C(\\c1ccccc1)c2ccccc2 (stereo unspecified)", "Category": "Not satisfied"}
{"Compound": "c1cc(-c2cnn3cc(-c4ccc(OCCN5CCCCC5)cc4)cnc23)ccn1", "Category": "Satisfied"}

In the following, a different compound is considered.
Input CC(C)c1onc(-c2c(Cl)cccc2Cl)c1COc1ccc(/C=C/c2cccc(C(=O)O)c2)c(Cl)c1 ; condition: cell viability strictly below 90%. Does it hold?
Not satisfied

Recorded values, source the supplement of paper PMC11451515.
